FYI, the data here is from patent US20250304537A1.

# test target: recombinant human Myt1 (full length PKMYT1) (Homo sapiens (Human), UniProt Q99640)
# Sequence (Q99640 whole entry): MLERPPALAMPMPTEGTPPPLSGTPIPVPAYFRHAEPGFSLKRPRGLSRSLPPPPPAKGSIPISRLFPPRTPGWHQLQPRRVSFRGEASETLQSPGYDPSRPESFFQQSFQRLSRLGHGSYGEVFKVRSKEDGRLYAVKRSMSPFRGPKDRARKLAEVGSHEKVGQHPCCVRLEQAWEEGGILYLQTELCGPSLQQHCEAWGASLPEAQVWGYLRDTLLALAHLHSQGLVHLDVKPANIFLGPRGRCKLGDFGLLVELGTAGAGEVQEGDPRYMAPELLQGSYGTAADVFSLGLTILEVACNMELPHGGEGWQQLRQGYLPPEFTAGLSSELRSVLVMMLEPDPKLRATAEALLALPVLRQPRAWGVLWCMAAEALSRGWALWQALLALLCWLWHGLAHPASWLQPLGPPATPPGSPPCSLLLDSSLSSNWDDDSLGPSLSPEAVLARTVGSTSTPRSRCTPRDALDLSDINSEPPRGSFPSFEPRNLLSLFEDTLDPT
# test description: Recombinant human Myt1 kinase assay (ADP-Glo)
# applied conditions: 10 μM ATP
measure: IC50

Examples from the recorded data:
CCC(C)COc1cccc(-c2cc(-c3c(C)ccc4[nH]ncc34)c(N)c(C(N)=O)n2)n1 (stereo not drawn) | 35 nM
COCCCOc1ccc(-c2nc(C(N)=O)c(N)c(-c3c(C)ccc4[nH]ncc34)n2)cc1 | 43 nM

The record that follows has no IC50 shown yet.
stdin: Param request: IC50 | system recombinant human Myt1 (full length PKMYT1) (Homo sapiens (Human), UniProt Q99640) | item Cc1ccc2[nH]ncc2c1-c1cc(-c2ccnc(N3CC[C@@H](O)C3)n2)nc(C(N)=O)c1N
stdout: 18 nM

----------
# test target: recombinant human Myt1 (full length PKMYT1) (Homo sapiens (Human), UniProt Q99640)
# test description: Recombinant human Myt1 kinase assay (ADP-Glo)
# applied conditions: 10 μM ATP
This section presents molecules with their documented IC50 values.

Cc1ccc2[nH]ncc2c1-c1nc(-c2cc(F)cnc2NC2(C(F)(F)F)CC2)nc(C(N)=O)c1N | < 3 nM
COc1cccc(-c2cccc(-c3cc(-c4c(C)ccc5[nH]ncc45)c(N)c(C(N)=O)n3)n2)c1 | > 2000 nM

The record that follows has no IC50 shown yet.
stdin: Read the entry Cc1ccc2[nH]ncc2c1-c1nc(-c2cccnc2N[C@@H]2CCO[C@H](C)C2)nc(C(N)=O)c1N and write its reported IC50.
stdout: 4 nM

----------
# test target: recombinant human Myt1 (full length PKMYT1) (Homo sapiens (Human))
# test description: Recombinant human Myt1 kinase assay (ADP-Glo)
# applied conditions: 10 μM ATP
measure: IC50 (nM)
Give the value, in units of nM, as a plain number.

Examples from the recorded data:
Cc1ccc2n[nH]cc2c1-c1cc(-c2cccc(OC[C@@H](N)c3ccccc3)n2)nc(C(N)=O)c1N | 162
Cc1ccc2[nH]ncc2c1-c1nc(-c2cc(F)cc(F)c2NCC(F)F)nc(C(N)=O)c1N | 7
Cc1ccc2[nH]ncc2c1-c1nc(-c2ccccc2NC(=O)C2(C#N)CC2)nc(C(N)=O)c1N | 4
Cc1ccc2[nH]ncc2c1-c1nc(-c2cc(F)ccc2NCC(F)F)nc(C(N)=O)c1N | 4
Cc1ccc2[nH]ncc2c1-c1cc(-c2ccnc(OCCc3cc[nH]n3)n2)nc(C(N)=O)c1N | 4

stdin: Read the entry Cc1ccc2[nH]ncc2c1-c1nc(-c2ccccc2NC(=O)C2CC2)nc(C(N)=O)c1N and write its reported IC50.
stdout: 4

stdin: Read the entry Cc1ccc2[nH]ncc2c1-c1cc(-c2ccnc(N3CCCC3)n2)nc(C(N)=O)c1N and write its reported IC50.
stdout: 10

stdin: Read the entry Cc1ccc2[nH]ncc2c1-c1cc(-c2ccnc(N[C@H](CO)c3ccccc3)n2)nc(C(N)=O)c1N (atropisomer, axis not shown) and write its reported IC50.
stdout: 466

----------
This section presents molecules with their documented IC50 values.
# test target: recombinant human Myt1 (full length PKMYT1) (Homo sapiens (Human), UniProt Q99640)
# test description: Recombinant human Myt1 kinase assay (ADP-Glo)
# applied conditions: 10 μM ATP
Give the value, in units of nM, as a plain number.

Examples from the recorded data:
CO[C@@H](COc1cccc(-c2cc(-c3c(C)ccc4[nH]ncc34)c(N)c(C(N)=O)n2)n1)C1CC1 (atropisomer, axis not shown) [Compound 363] | 4
Cc1ccc2[nH]ncc2c1-c1cc(-c2ccnc(N3CCCCC3CCO)n2)nc(C(N)=O)c1N (stereo not shown) [Compound 404] | 24

The record that follows has no IC50 shown yet.
stdin: Param request: IC50 | system recombinant human Myt1 (full length PKMYT1) (Homo sapiens (Human), UniProt Q99640) | item CCC(COc1cccc(-c2cc(-c3c(C)ccc4[nH]ncc34)cc(C(N)=O)n2)n1)OC (stereo not shown) [Compound 498]
stdout: 93
